Test system: kochia (Bassia scoparia)
Test: Test A1 postemergence, kochia
Assay type: in vivo
Settings: Postemergence, 125 g ai/ha; 0 to 100 scale (0 no effect, 100 complete control); 10 days
Just a reminder that ties go to -1: only Plant response rating, Kochia strictly below 60 counts as 1.

# molecule, label
records = [
    ("Cc1cc(C)c(N2CCC3(CCC(C)CC3)C2=O)cc1NS(=O)(=O)C(F)(F)F (stereo not drawn) [Compound 402]", 1),
    ("Cc1c(NS(=O)(=O)C(F)(F)F)cc(C2=NOC3(CCCC3)C2)c(C)c1C [Compound 380]", 1),
    ("Cc1cc(C)c(N2Cc3cccc(Br)c3C2=O)cc1NS(=O)(=O)Cl [Compound 415]", -1),
    ("Cc1c(C2=NOC3(CCCC3)C2)cc(N(COC(=O)C(C)(C)C)S(=O)(=O)C(F)(F)F)c(C)c1C [Compound 382]", 1),
    ("Cc1cc(C)c(N(COC(=O)C(C)(C)C)S(=O)(=O)C(F)(F)F)cc1N1CCC2(CCC(F)(F)CC2)C1=O [Compound 397]", -1),
    ("Cc1cc(C)c(C2=NOC(C(C)C)C2)cc1NS(=O)(=O)C(F)(F)F (stereo not drawn) [Compound 381]", 1),
    ("CCOc1cccc2c1C(=O)N(c1cc(N(COC(=O)C(C)(C)C)S(=O)(=O)Cl)c(C)cc1C)C2 [Compound 414]", 1),
]
